- Target Desc: T1, human TROP2-Fc protein antigen (human, UniProt P09758 27-274)
- T1 construct: extracellular domain; also called CRD + TY-1 + CPD; not shown: IgG Fc of the pFUSE-IgG plasmid
- T1 sequence (looked up): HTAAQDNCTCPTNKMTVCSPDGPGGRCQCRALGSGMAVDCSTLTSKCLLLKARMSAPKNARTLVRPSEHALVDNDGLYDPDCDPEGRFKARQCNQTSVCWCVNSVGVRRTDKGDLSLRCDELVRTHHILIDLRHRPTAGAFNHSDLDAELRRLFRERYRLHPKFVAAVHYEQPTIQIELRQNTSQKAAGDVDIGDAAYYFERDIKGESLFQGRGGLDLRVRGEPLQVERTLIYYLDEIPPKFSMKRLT
- Experimental Protocol: ELISA, coated human TROP2-Fc, Kd calculated from absorbance
Measured Quantity: Kd (nM)
Give the number; nM is assumed, so skip it.

q: What value of Kd has been recorded for this entry: MY1530-6-1 (VHH, Expressed in E. coli WK6 from vector pMECS, purified on a nickel column; also called MY1530-6-1 VHH; anti-TROP2 single domain antibody) VHH: QVQLQESGGGSVQAGGSLRLSCAASGFPYSSYSMGWFRQAPGKEREGVAAIYTGGGSTYYAGSVKGRFTISQEHATNTLYLQMNSLKPEDTAMYYCAANMVDNGVISGIQALGVRYYNYWGQGTQVTVSS
a: 1.51

Others:
q: What value of Kd has been recorded for this entry: MY1530-5-17 (VHH, Expressed in E. coli WK6 from vector pMECS, purified on a nickel column; also called MY1530-5-17 VHH; anti-TROP2 single domain antibody) VHH: QVQLQESGGGSVQPGGSLRLSCVVSGYTVSSVCMAWFRQAPGMERELVAGFYHSGGTYYGDSVKGRFTASQDNAKNTLYLQMNSLKPEDTATYYCARARYPSSACGTSPSNYNIWGQGTQVTVSS
a: 1.39

q: Next up: MY1530-2-53 (VHH, Expressed in E. coli WK6 from vector pMECS, purified on a nickel column; also called MY1530-2-53 VHH; anti-TROP2 single domain antibody) VHH: QVQLQESGGGSVQAGGSLRLSCAVSGLTSSTTCMGWFRQAPGKEREGVAVIRSSGETTAADSVKGRFTISRDNAKNTLSLQMTSLKPEDTAMYYCAAAWPYSGCLLPLSSGDFTYWGQGTQVTVSS
a: 4.23

q: Next up: MY1530-1-20 (VHH, Expressed in E. coli WK6 from vector pMECS, purified on a nickel column; also called MY1530-1-20 VHH; anti-TROP2 single domain antibody) VHH: QVQLQESGGGSVLAGGSLRLSCTVSGSFVSSRSMAWFRQTPGKEREGVAAISQYGDPKYAGSVKGRFTMSRDNAKNTLLLQMNSLKPEDTAIYYCAAGEAWELATLSRSDYIYWGQGTQVTVSS
a: 1.13
